Overview of reported self-cleavage across a group of variants:
B1: CPEB3 Ribozyme (parent)
chain: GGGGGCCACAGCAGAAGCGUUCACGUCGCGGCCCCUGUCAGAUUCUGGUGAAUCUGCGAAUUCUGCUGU

variants of: B1; test: self-cleavage, relative activity (ratio to wild type); higher = more cleavage; co-transcriptional
Respond numerically, and do not add a unit to the figure.

For the variant G19U U46A , report self-cleavage. 0.591

For the variant U44G U69G , report self-cleavage. 1.04

For the variant A59U C63U , report self-cleavage. 0.734

For the variant G1A A13C , report self-cleavage. 0.0638

For the variant C18G G28C , report self-cleavage. 0.911

For the variant C12A G25C , report self-cleavage. 0.127

For the variant G4U A60C , report self-cleavage. 0.171

For the variant C7G G50C , report self-cleavage. 0.294

For the variant C29G U69A , report self-cleavage. 0.757

For the variant C6G G19C , report self-cleavage. 0.0471

Further cases:
For the variant G19U C27A , report self-cleavage. 0.947

For the variant G5C U44C , report self-cleavage. 0.179

For the variant G41C U53C , report self-cleavage. 0.283

For the variant C24A G25C , report self-cleavage. 0.122

For the variant A13G G56A , report self-cleavage. 0.934

For the variant C29U C57G , report self-cleavage. 0.177

For the variant G47C G56U , report self-cleavage. 1.02

For the variant C24G A51G , report self-cleavage. 0.515

For the variant G41A C57U , report self-cleavage. 0.368

For the variant G31C U44A , report self-cleavage. 0.257

For the variant G11C U61A , report self-cleavage. 0.424

For the variant C18G U62C , report self-cleavage. 0.122

For the variant G31U U53A , report self-cleavage. 0.545

For the variant U44C A52U , report self-cleavage. 1
